Record: compiled Ki on Coagulation factor VII (Homo sapiens) from multiple reports.
Target: Coagulation factor VII (Homo sapiens)
Sequence (P08709 whole entry): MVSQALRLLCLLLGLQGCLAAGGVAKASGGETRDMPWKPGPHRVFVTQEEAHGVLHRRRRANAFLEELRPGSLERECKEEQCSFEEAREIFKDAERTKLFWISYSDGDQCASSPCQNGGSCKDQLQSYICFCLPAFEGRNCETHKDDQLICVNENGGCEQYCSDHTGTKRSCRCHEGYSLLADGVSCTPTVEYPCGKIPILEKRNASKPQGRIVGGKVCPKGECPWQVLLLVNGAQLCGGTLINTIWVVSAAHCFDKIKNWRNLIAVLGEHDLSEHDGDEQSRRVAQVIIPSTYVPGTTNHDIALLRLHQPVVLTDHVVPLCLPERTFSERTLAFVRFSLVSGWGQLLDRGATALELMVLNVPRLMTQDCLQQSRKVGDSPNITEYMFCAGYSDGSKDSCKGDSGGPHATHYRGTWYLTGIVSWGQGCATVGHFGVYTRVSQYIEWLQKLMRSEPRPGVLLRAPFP
The label met is reserved for Ki strictly under 2 µM; not met covers values equal to or above it.

{"Molecule": "O=C(O)Cc1cc(-c2cccc([N+](=O)[O-])c2)c(O)c(-c2nc3ccccc3[nH]2)c1", "Discrete label": "not met"}
{"Molecule": "CC(C)(C)CC(=O)NCc1nc(Cc2ccccc2)n(CC(=O)N[C@@H](CCCCN)B2O[C@@H]3C[C@@H]4C[C@@H](C4(C)C)[C@]3(C)O2)n1", "Discrete label": "not met"}
{"Molecule": "C[C@H](NC(=O)CNC(=O)Nc1ccc(C(=N)N)c(Cl)c1)c1cccc(Br)c1", "Discrete label": "not met"}
{"Molecule": "CC(C)(C)[C@@H](O)C(=O)N1CCSC[C@H]1C(=O)NCc1cc(Cl)ccc1CN.O=C(O)C(F)(F)F", "Discrete label": "not met"}
{"Molecule": "Nc1n[nH]c2cc(-c3nc([C@H](Cc4ccccc4)NC(=O)/C=C/c4cc(Cl)ccc4-n4cnnn4)[nH]c3Cl)ccc12", "Discrete label": "not met"}
{"Molecule": "C[C@]1(c2ccccc2)C[C@@H](c2cccc(-c3ccc(C#N)cc3C(=O)O)c2)Nc2ccc(C(=N)N)cc21 (racemic)", "Discrete label": "met"}
{"Molecule": "COc1ccc(-n2nc(C(N)=O)c3ncn(-c4ccc(-c5ccccc5CN5CCCC5)cc4)c(=O)c32)cc1", "Discrete label": "not met"}
{"Molecule": "COC(=O)Nc1ccc(-c2cc([C@H](Cc3ccccc3)NC(=O)/C=C/c3cc(Cl)ccc3-n3cnnn3)nnc2Cl)cc1", "Discrete label": "not met"}
{"Molecule": "COC(=O)Nc1ccc(-c2ccnc([C@H](Cc3ccccc3)NC(=O)/C=C/c3cc(Cl)ccc3-n3cnnn3)c2)cc1", "Discrete label": "not met"}
{"Molecule": "Nc1ccc2[nH]c(-c3cc(CC(=O)O)cc(-c4cccc([N+](=O)[O-])c4)c3O)nc2n1", "Discrete label": "not met"}
{"Molecule": "COc1ccc(C#N)cc1-c1cc(C(CC(=O)O)C(=O)O)cc(-c2nc3cc(C(=N)N)ccc3[nH]2)c1O (stereo unspecified)", "Discrete label": "met"}
{"Molecule": "N=C(N)c1ccc2[nH]c(-c3cc(C(CC(=O)O)C(=O)O)cc(-c4cc(Cl)cc(Cl)c4Cl)c3O)nc2c1 (stereo unspecified)", "Discrete label": "met"}
{"Molecule": "C[C@H](NC(=O)CNC(=O)Nc1ccc(C(=N)N)cc1)c1ccc(Br)cc1", "Discrete label": "met"}
{"Molecule": "C[C@@H](NC(=O)CNC(=O)Nc1ccc(C(=N)N)cc1)c1cccc(Br)c1", "Discrete label": "not met"}
{"Molecule": "N=C(N)c1ccc(NC(=O)NCC(=O)NCc2cccc(Br)c2)cc1", "Discrete label": "met"}
{"Molecule": "COc1ccc(-n2nc(C(N)=O)c3ncn(-c4ccc(-c5ccccc5CN5CCCC5)cc4F)c(=O)c32)cc1", "Discrete label": "not met"}
